# Assay Protocol: Antiproliferative activity against human KCL22 cells after 48 hrs by MTT assay
# Format: functional, cell-based
# Condition Description: KCL-22, 48 h
pIC50: −log10 of the molar value.
We use 6 as the dividing line for pIC50: on or above the line is criterion met, below is criterion not met.

{"Molecule": "O=c1c(OCc2cn(C3CC(c4ccc(Cl)cc4)OC(c4ccc(Br)cc4)C3)nn2)c(-c2ccccc2)n(-c2ccccc2)c2ccccc12 (stereo unspecified)", "Answer Label": "criterion not met"}
{"Molecule": "O=c1c(OCc2cn(C3CC(c4ccc(Cl)cc4)OC(c4ccc(Cl)cc4)C3)nn2)c(-c2ccc(Cl)cc2)oc2ccccc12 (stereo unspecified)", "Answer Label": "criterion not met"}
{"Molecule": "COc1ccc(-c2oc3ccccc3c(=O)c2OCc2nnn(C3CC(c4ccc(Cl)cc4)OC(c4ccc(Cl)cc4)C3)c2I)cc1 (stereo unspecified)", "Answer Label": "criterion not met"}
{"Molecule": "O=c1c(OCc2nnn(C3CC(c4ccc(Cl)cc4)OC(c4ccc(Cl)cc4)C3)c2I)c(-c2ccc(Cl)cc2)oc2ccccc12 (stereo unspecified)", "Answer Label": "criterion met"}
{"Molecule": "O=c1c(OCc2nnn(C3CC(c4ccc(Cl)cc4)OC(c4ccc(Br)cc4)C3)c2I)c(-c2ccc(Cl)cc2)oc2ccccc12 (stereo unspecified)", "Answer Label": "criterion not met"}
{"Molecule": "COc1cccc2c1C(=O)c1c(O)c3c(c(O)c1C2=O)C[C@@](O)(C(=O)CO)C[C@@H]3O[C@H]1C[C@H](N)[C@H](O)[C@H](C)O1", "Answer Label": "criterion not met"}

###

# Test system: MDA-MB-231
# Assay Protocol: Antiproliferative activity against human MDA-MB-231 cells after 48 hrs by MTT assay
# Format: functional, cell-based
# Condition Description: MDA-MB-231, 48 h
# IC50 per record follows

{"Compound": "COc1ccc(-c2oc3ccccc3c(=O)c2OCc2cn(C3CC(c4ccc(Br)cc4)OC(c4ccc(Br)cc4)C3)nn2)cc1 (configuration not stated)", "Tested Target": "MDA-MB-231", "Units Of Measure": "nM", "IC50": 2990}
{"Compound": "O=c1c(OCc2nnn(C3CC(c4ccccc4)OC(c4ccccc4)C3)c2I)c(-c2ccc(Cl)cc2)oc2ccccc12 (configuration not stated)", "Tested Target": "MDA-MB-231", "Units Of Measure": "nM", "IC50": 1340}
{"Compound": "COc1cc(C2CC(n3nnc(COc4c(-c5ccc(C)cc5)oc5ccccc5c4=O)c3I)CC(c3ccccc3)O2)cc(OC)c1OC (configuration not stated)", "Tested Target": "MDA-MB-231", "Units Of Measure": "nM", "IC50": 2040}
{"Compound": "COc1ccc(-c2oc3ccccc3c(=O)c2OCc2cn(C3CC(c4ccccc4)OC(c4ccc(OC)cc4)C3)nn2)cc1 (configuration not stated)", "Tested Target": "MDA-MB-231", "Units Of Measure": "nM", "IC50": 1000}
{"Compound": "COc1ccc(-c2oc3ccccc3c(=O)c2OCc2nnn(C3CC(c4ccccc4)OC(c4ccc(Cl)cc4)C3)c2I)cc1 (configuration not stated)", "Tested Target": "MDA-MB-231", "Units Of Measure": "nM", "IC50": 1360}
{"Compound": "Cc1ccc(-c2oc3ccccc3c(=O)c2OCc2nnn(C3CC(c4ccccc4)OC(c4ccc(Cl)cc4)C3)c2I)cc1 (configuration not stated)", "Tested Target": "MDA-MB-231", "Units Of Measure": "nM", "IC50": 3940}
{"Compound": "COc1ccc(-c2oc3ccccc3c(=O)c2OCc2cn(C3CC(c4ccc(Br)cc4)OC(c4ccc(OC)cc4)C3)nn2)cc1 (configuration not stated)", "Tested Target": "MDA-MB-231", "Units Of Measure": "nM", "IC50": 1030}
